system: F. graminearum; test: microbe, parasite or virus in culture; type: cell-based; conditions: Fusarium graminearum, read-out: The Inhibition Rate (%) F. graminearum
inhibition at 50 µg/mL reference
Please state the figure in %; there is no need to write the unit.

// sample `COc1cc(/C=C/c2nc(-c3ccccc3)no2)cc(OC)c1OC` , its inhibition at 50 µg/mL was 36.1

The compound listed as `Oc1cc(-c2nc(-c3ccccc3)no2)cc(O)c1O` has a reported inhibition at 50 µg/mL of 56.9

Noted for `COc1cc(-c2noc(-c3cccc(O)c3)n2)cc(OC)c1OC` : its inhibition at 50 µg/mL reads 26.1
